# Test method notes: Water solubility at pH 6.8
# Assay type: physicochemical
Below, each entry is listed with its recorded solubility.
Write down the numeric answer in µM and omit the unit.

CC1C(=O)N(CC(=O)NCCOCCOCCOCCOCCOCCOCCNC(=O)CCc2cc(Cl)c(Oc3ccsc3C(=O)N3CCN(C4CC4)c4ccccc43)cc2Cl)CCCN1C(=O)C[C@H](N)Cc1cc(F)c(F)cc1F.F (mixture of isomers) | 50
CC1C(=O)N(CC(=O)NCCOCCOCCOCCOCCOCCOCCOCCNC(=O)CCc2cc(Cl)c(Oc3ccsc3C(=O)N3CCN(C4CC4)c4ccccc43)cc2Cl)CCCN1C(=O)C[C@H](N)Cc1cc(F)c(F)cc1F (mixture of isomers) | 50
CC1C(=O)N(CC(=O)NCCOCCOCCOCCOCCOCCOCCOCCOCCNC(=O)CCc2cc(Cl)c(Oc3ccsc3C(=O)N3CCN(C4CC4)c4ccccc43)cc2Cl)CCCN1C(=O)C[C@H](N)Cc1cc(F)c(F)cc1F (mixture of isomers) | 50

Consider now this further compound.
Field request: solubility | item: N[C@@H](CC(=O)N1CCCN(CC(=O)NCCOCCOCCOCCOCCOCCNC(=O)CCc2cc(Cl)c(Oc3ccsc3C(=O)N3CCN(C4CC4)c4ccccc43)cc2Cl)C(=O)C1Cc1ccccc1)Cc1cc(F)c(F)cc1F (mixture of isomers) 10

###

# Test method notes: Water solubility at pH 7.4
# Type: physicochemical
Assay readout: solubility

Endpoint output: solubility of CC1C(=O)N(CC(=O)N(CCOCCOCCOCCOCCOCCOCCOCCOCCN(CC(=O)O)C(=O)CCc2cc(Cl)c(Oc3ccsc3C(=O)N3CCN(C4CC4)c4ccccc43)cc2Cl)CC(=O)O)CCCN1C(=O)C[C@H](N)Cc1cc(F)c(F)cc1F (mixture of isomers) . Value? > 100 µM

###

# Measurement target: UniProt:P28843
# Test method notes: Inhibition of mouse serum DPP4 assessed as cleavage of substrate by measuring AMC release using Gly-Pro-AMC as substrate by fluorescence based microplate reader assay
Assay readout: IC50 (nM)
State just the number; it will be interpreted in nM.

CC1C(=O)N(CC(=O)N(CCOCCOCCOCCOCCOCCOCCOCCOCCN(CC(=O)O)C(=O)CCc2cc(Cl)c(Oc3ccsc3C(=O)N3CCN(C4CC4)c4ccccc43)cc2Cl)CC(=O)O)CCCN1C(=O)C[C@H](N)Cc1cc(F)c(F)cc1F (mixture of isomers) | 21.5
N[C@@H](CC(=O)N1CCCN(CC(=O)NCCOCCOCCOCCNC(=O)CCc2cc(Cl)c(Oc3ccsc3C(=O)N3CCN(C4CC4)c4ccccc43)cc2Cl)C(=O)C1Cc1ccccc1)Cc1cc(F)c(F)cc1F (mixture of isomers) | 113
CC1C(=O)N(CC(=O)NCCOCCOCCOCCOCCOCCNC(=O)CCc2cc(Cl)c(Oc3ccsc3C(=O)N3CCN(C4CC4)c4ccccc43)cc2Cl)CCCN1C(=O)C[C@H](N)Cc1cc(F)c(F)cc1F (mixture of isomers) | 57.5
N[C@@H](CC(=O)N1CCCNC(=O)C1Cc1ccccc1)Cc1cc(F)c(F)cc1F (mixture of isomers) | 0.8
N[C@@H](CC(=O)N1CCCN(CC(=O)NCCOCCOCCOCCOCCOCCOCCOCCNC(=O)CCc2cc(Cl)c(Oc3ccsc3C(=O)N3CCN(C4CC4)c4ccccc43)cc2Cl)C(=O)C1Cc1ccccc1)Cc1cc(F)c(F)cc1F (mixture of isomers) | 103

Next, consider the following molecule.
What value of IC50 has been reported for the following molecule? N[C@@H](CC(=O)N1CCCN(CC(=O)NCCOCCOCCOCCOCCOCCOCCNC(=O)CCc2cc(Cl)c(Oc3ccsc3C(=O)N3CCN(C4CC4)c4ccccc43)cc2Cl)C(=O)C1Cc1ccccc1)Cc1cc(F)c(F)cc1F (mixture of isomers) 112

###

# Measurement target: UniProt Q8TDU6
# Sequence (Q8TDU6 whole entry): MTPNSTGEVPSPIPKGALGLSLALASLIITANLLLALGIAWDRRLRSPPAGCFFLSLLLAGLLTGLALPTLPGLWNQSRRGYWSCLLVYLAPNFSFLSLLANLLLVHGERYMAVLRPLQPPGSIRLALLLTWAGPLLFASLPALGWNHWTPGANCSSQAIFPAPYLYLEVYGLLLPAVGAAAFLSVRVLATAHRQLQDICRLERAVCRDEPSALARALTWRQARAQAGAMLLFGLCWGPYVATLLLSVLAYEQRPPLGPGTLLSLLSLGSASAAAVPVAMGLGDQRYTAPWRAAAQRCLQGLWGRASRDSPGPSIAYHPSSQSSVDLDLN
# Test method notes: Agonist activity at human TGR5 expressed in human HEK293 cells co-expressing CRE-driven luciferase reporter gene assessed as luciferase activity incubated for 5.5 hrs by Steady-Glo based luciferase assay
# Type: functional, cell-based
Below is a list of entries, each paired with its recorded EC50 value.
Dear colleague, please return just the value in nM, with no unit written.

CC1C(=O)N(CC(=O)NCCOCCOCCOCCOCCOCCOCCOCCOCCNC(=O)CCc2cc(Cl)c(Oc3ccsc3C(=O)N3CCN(C4CC4)c4ccccc43)cc2Cl)CCCN1C(=O)C[C@H](N)Cc1cc(F)c(F)cc1F (mixture of isomers) | 3.2

Moving on to another molecule below.
// EC50 lookup, key: N[C@@H](CC(=O)N1CCCN(CC(=O)NCCOCCOCCOCCNC(=O)CCc2cc(Cl)c(Oc3ccsc3C(=O)N3CCN(C4CC4)c4ccccc43)cc2Cl)C(=O)C1Cc1ccccc1)Cc1cc(F)c(F)cc1F (mixture of isomers) 6.1

###

// pEC50 lookup, one value per entry
# Measurement target: G-protein coupled bile acid receptor 1 (Mus musculus, UniProt Q80SS6)
# Sequence (Q80SS6 whole entry): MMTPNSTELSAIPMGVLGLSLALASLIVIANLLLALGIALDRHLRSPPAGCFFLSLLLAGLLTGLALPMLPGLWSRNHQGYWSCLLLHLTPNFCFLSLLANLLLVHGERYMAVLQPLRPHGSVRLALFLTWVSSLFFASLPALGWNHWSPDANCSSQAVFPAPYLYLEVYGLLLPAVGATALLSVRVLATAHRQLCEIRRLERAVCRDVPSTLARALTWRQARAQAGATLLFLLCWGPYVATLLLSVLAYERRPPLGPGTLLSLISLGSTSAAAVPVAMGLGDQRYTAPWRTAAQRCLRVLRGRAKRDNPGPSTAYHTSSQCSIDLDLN
# Test method notes: Agonist activity at mouse TGR5 expressed in human HEK293 cells co-expressing CRE-driven luciferase reporter gene assessed as luciferase activity incubated for 5.5 hrs by Steady-Glo based luciferase assay
On this scale, pEC50 is minus log10 of a concentration expressed in M (mol/L).

N[C@@H](CC(=O)N1CCCN(CC(=O)NCCOCCOCCOCCOCCOCCOCCOCCNC(=O)CCc2cc(Cl)c(Oc3ccsc3C(=O)N3CCN(C4CC4)c4ccccc43)cc2Cl)C(=O)C1Cc1ccccc1)Cc1cc(F)c(F)cc1F (mixture of isomers) | 8.68
CC1C(=O)N(CC(=O)NCCOCCOCCOCCOCCOCCOCCNC(=O)CCc2cc(Cl)c(Oc3ccsc3C(=O)N3CCN(C4CC4)c4ccccc43)cc2Cl)CCCN1C(=O)C[C@H](N)Cc1cc(F)c(F)cc1F.F (mixture of isomers) | 8.64
CC1C(=O)N(CC(=O)NCCOCCOCCOCCOCCOCCOCCOCCNC(=O)CCc2cc(Cl)c(Oc3ccsc3C(=O)N3CCN(C4CC4)c4ccccc43)cc2Cl)CCCN1C(=O)C[C@H](N)Cc1cc(F)c(F)cc1F (mixture of isomers) | 8.68
CC1C(=O)N(CC(=O)NCCOCCOCCOCCOCCOCCNC(=O)CCc2cc(Cl)c(Oc3ccsc3C(=O)N3CCN(C4CC4)c4ccccc43)cc2Cl)CCCN1C(=O)C[C@H](N)Cc1cc(F)c(F)cc1F (mixture of isomers) | 8.64

Below: the item to evaluate.
Using the record for N[C@@H](CC(=O)N1CCCN(CC(=O)NCCOCCOCCOCCNC(=O)CCc2cc(Cl)c(Oc3ccsc3C(=O)N3CCN(C4CC4)c4ccccc43)cc2Cl)C(=O)C1Cc1ccccc1)Cc1cc(F)c(F)cc1F (mixture of isomers) , report its pEC50. 8.43

###

# Measurement target: Dipeptidyl peptidase 4 (Mus musculus, UniProt P28843)
# Sequence (P28843 whole entry): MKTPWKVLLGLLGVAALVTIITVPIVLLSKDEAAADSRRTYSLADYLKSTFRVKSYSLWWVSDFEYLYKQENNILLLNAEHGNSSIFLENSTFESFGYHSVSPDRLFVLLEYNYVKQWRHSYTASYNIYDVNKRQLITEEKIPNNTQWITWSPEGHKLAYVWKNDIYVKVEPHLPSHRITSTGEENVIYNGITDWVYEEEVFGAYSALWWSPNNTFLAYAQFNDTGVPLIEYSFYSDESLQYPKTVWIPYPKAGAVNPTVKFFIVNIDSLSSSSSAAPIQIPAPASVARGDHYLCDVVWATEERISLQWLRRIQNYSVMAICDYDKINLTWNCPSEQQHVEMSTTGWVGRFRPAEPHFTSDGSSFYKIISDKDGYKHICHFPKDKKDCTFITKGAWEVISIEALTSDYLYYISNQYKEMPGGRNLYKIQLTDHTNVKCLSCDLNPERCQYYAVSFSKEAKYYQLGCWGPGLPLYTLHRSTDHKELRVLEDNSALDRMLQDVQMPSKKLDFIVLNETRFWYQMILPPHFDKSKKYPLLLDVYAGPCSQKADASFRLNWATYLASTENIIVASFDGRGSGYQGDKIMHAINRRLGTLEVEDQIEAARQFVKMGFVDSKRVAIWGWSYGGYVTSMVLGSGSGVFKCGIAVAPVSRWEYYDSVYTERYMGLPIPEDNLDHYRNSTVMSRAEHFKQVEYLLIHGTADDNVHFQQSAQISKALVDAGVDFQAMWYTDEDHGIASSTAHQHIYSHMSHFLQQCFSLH
# Test method notes: Inhibition of mouse serum DPP4 assessed as cleavage of substrate by measuring AMC release using Gly-Pro-AMC as substrate by fluorescence based microplate reader assay
Quick reference for pIC50 among some compounds
Here pIC50 is given on a logarithmic scale as minus log10 of the concentration in mol/L.

Please review the following examples before continuing.
CC1C(=O)N(CC(=O)NCCOCCOCCOCCNC(=O)CCc2cc(Cl)c(Oc3ccsc3C(=O)N3CCN(C4CC4)c4ccccc43)cc2Cl)CCCN1C(=O)C[C@H](N)Cc1cc(F)c(F)cc1F (mixture of isomers) | 6.93
CC1C(=O)N(CC(=O)NCCOCCOCCOCCOCCOCCOCCNC(=O)CCc2cc(Cl)c(Oc3ccsc3C(=O)N3CCN(C4CC4)c4ccccc43)cc2Cl)CCCN1C(=O)C[C@H](N)Cc1cc(F)c(F)cc1F.F (mixture of isomers) | 7.22

Continue with the compound presented below.
For the compound C.N[C@@H](CC(=O)N1CCCN(CC(=O)NCCOCCOCCOCCOCCOCCOCCOCCOCCNC(=O)CCc2cc(Cl)c(Oc3ccsc3C(=O)N3CCN(C4CC4)c4ccccc43)cc2Cl)C(=O)C1Cc1ccccc1)Cc1cc(F)c(F)cc1F (mixture of isomers) , what pIC50 is on record? 6.98

Cited source for all entries: ChEMBL document CHEMBL5338718
